# Tested on: dye-loaded E. coli cells
# test-method-notes: Viability of DiSC3(5) dye-loaded cells by plating
# Type: cell-based, Escherichia coli
# details: peptide 10 µM, 2 min of exposure; dye-loaded cells 10^6, HEPES-glucose buffer; two different days
Residues, ends and D or L forms follow the SMILES beside them.
Known log reduction in cell viability of dye-loaded cells of a selection of compounds
outcome-measure: log reduction in cell viability of dye-loaded cells (log)

>>> result_value("CSCC[C@H](NC(=O)[C@H](CO)NC(=O)[C@H](Cc1ccc(O)cc1)NC(=O)[C@H](CCCCN)NC(C)=O)C(=O)N[C@@H](CCC(=O)O)C(=O)N[C@@H](Cc1c[nH]cn1)C(=O)N[C@@H](Cc1ccccc1)C(=O)N[C@@H](CCCNC(=N)N)C(=O)N[C@@H](Cc1c[nH]c2ccccc12)C(=O)NCC(=O)N[C@@H](CCCCN)C(=O)N1CCC[C@H]1C(=O)N[C@H](C(N)=O)C(C)C")
0.6
>>> result_value("CSCC[C@H](NC(=O)[C@H](CCCCN)NC(=O)[C@H](Cc1ccc(O)cc1)NC(=O)[C@H](CCCCN)NC(C)=O)C(=O)N[C@@H](C)C(=O)N[C@@H](Cc1c[nH]cn1)C(=O)N[C@@H](Cc1ccccc1)C(=O)N[C@@H](CCCNC(=N)N)C(=O)N[C@@H](Cc1c[nH]c2ccccc12)C(=O)NCC(=O)N[C@@H](CCCCN)C(=O)N1CCC[C@H]1C(=O)N[C@H](C(N)=O)C(C)C [KKA-MSH] (Ac-KYKMAHFRWGKPV-NH2)")
1
>>> result_value("CSCC[C@H](NC(=O)[C@H](CCCCN)NC(=O)[C@H](Cc1ccc(O)cc1)NC(=O)[C@H](CCCCN)NC(C)=O)C(=O)N[C@@H](CCCCN)C(=O)N[C@@H](Cc1c[nH]cn1)C(=O)N[C@@H](Cc1ccccc1)C(=O)N[C@@H](CCCNC(=N)N)C(=O)N[C@@H](Cc1c[nH]c2ccccc12)C(=O)NCC(=O)N[C@@H](CCCCN)C(=O)N1CCC[C@H]1C(=O)N[C@H](C(N)=O)C(C)C [KKK-MSH] (Ac-KYKMKHFRWGKPV-NH2)")
2.1
>>> result_value("CSCC[C@H](NC(=O)[C@H](CCCCN)NC(=O)[C@H](Cc1ccc(O)cc1)NC(=O)[C@H](CCCCN)NC(C)=O)C(=O)N[C@@H](CCC(=O)O)C(=O)N[C@@H](Cc1c[nH]cn1)C(=O)N[C@@H](Cc1ccccc1)C(=O)N[C@@H](CCCNC(=N)N)C(=O)N[C@@H](Cc1c[nH]c2ccccc12)C(=O)NCC(=O)N[C@@H](CCCCN)C(=O)N1CCC[C@H]1C(=O)N[C@H](C(N)=O)C(C)C")
1.2

The measured values listed here are drawn from paper PMC8821551.
